Molecular target: T1, IL-13RA2 endogenously expressed on U251 cells (human, UniProt Q14627 27-380)
T1 construct: whole, on cells; also called U251 cells expressing IL13RA2; U251 (IL-13RA2-positive)
T1 sequence (looked up): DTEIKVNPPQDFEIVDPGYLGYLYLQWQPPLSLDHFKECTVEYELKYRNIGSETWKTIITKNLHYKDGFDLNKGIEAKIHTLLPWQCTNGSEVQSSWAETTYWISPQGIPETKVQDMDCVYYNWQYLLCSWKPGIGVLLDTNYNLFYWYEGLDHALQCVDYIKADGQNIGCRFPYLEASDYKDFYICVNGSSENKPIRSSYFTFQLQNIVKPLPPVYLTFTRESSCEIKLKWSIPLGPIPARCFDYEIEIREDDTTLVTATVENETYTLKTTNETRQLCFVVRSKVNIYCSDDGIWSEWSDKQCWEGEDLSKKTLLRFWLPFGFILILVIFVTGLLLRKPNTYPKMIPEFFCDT
Experiment: flow cytometry on U251 cells, scFv_Fc form, 5-fold dilutions from 2,000 nM, FITC anti-human IgG
Answer each item with its documented EC50.
Answers are plain numbers, in nM.

1B11 (scFv_Fc form) (Fc fusion, not shown: human Fc segment of the eukaryotic expression vector V152) scFv: EVQLLESGGGLVQPGGSLRLSCAASGFTFSRDALNWVRQAPGKGLEWVSAISGSGGSTFYADSVKGRFTISRDNSKNTLYLQMNSLRAEDTAVYYCAKVRYGWGAGAFDYWGQGTLVTVSSGGGGSGGGGSGGGGSDIQMTQSPSTLSASVGDRVTITCRASQSISSWLAWYQQKPGKAPKLLIYDASSLESGVPSRFSGSGSGTEFTLTISSLQPDDFATYYCQQYDTYPPITFGQGTKVEIK: 0.47
5D7 (scFv_Fc form) (Fc fusion, not shown: human Fc segment of the eukaryotic expression vector V152) scFv: EVQLLESGGGLVQPGGSLRLSCAASGFTFSNYAMSWVRQAPGKGLEWVSGIRSSGGRTFYADSVKGRFTISRDNSKNTLYLQMNSLRAEDTAVYYCARVAFSGSFDYWGQGTLVTVSSGGGGSGGGGSGGGGSDIQMTQSPSTLSASVGDRVTITCRASQSISSWLAWYQQKPGKAPKLLIYDASSLESGVPSRFSGSGSGTEFTLTISSLQPDDFATYYCQQRNRYPPTFGQGTKVEIK: 0.56
5G3 (scFv_Fc form) (Fc fusion, not shown: human Fc segment of the eukaryotic expression vector V152) scFv: EVQLLESGGGLVQPGGSLRLSCAASGFTFSSYVLSWVRQAPGKGLEWVSAIRGSAGNTYYADSVKGRFTISRDNSKNTLYLQMNSLRAEDTAVYYCARVAFSGSFDYWGQGTLVTVSSGGGGSGGGGSGGGGSDIQMTQSPSTLSASVGDRVTITCRASQSISSWLAWYQQKPGKAPKLLIYDASSLESGVPSRFSGSGSGTEFTLTISSLQPDDFATYYCQQRNRYPPTFGQGTKVEIK: 0.53

--- query ---
# return recorded EC50 for entry 2C7 (scFv_Fc form) (Fc fusion, not shown: human Fc segment of the eukaryotic expression vector V152) scFv: EVQLLESGGGLVQPGGSLRLSCAASGFTFKLPAMSWVRQAPGKGLEWVSAITGSGGSTYYADSVKGRFTISRDNSKNTLYLQMNSLRAEDTAVYYCAKVRYGWGAGAFDYWGQGTLVTVSSGGGGSGGGGSGGGGSDIQMTQSPSTLSASVGDRVTITCRASQSISSWLAWYQQKPGKAPKLLIYDASSLESGVPSRFSGSGSGTEFTLTISSLQPDDFATYYCQQYDTYPPITFGQGTKVEIK
0.57
